Collected Specific Binding [MFI] values appear next to each entry.
Experimental target: T1, human TIM3, full length, on cells (human, UniProt Q8TDQ0 22-301)
T1 construct: CHO-K1 cells were transfected with a plasmid for full-length human Tim3; other cells carry endogenous TIM3; also called huTIM-3; CHO-Tim3
Experiment summary: FACS, human CD14+ monocytes, donor3, 10 µg/ml
Endpoint label: Specific Binding [MFI] (MFI)

Binder: anti-TIM3 antibody Tim3_0033 (antibody, V domains shown, Mouse monoclonal from hybridoma) VH: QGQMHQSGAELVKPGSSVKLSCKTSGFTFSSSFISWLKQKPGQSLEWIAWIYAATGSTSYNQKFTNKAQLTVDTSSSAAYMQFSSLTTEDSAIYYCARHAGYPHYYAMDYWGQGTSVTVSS VL: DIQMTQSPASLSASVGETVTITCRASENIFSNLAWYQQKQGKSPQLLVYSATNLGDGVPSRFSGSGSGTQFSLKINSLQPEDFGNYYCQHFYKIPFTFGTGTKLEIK
Endpoint label: Specific Binding [MFI]
Unit info: MFI
Experimental result: 595
//
Binder: anti-TIM3 antibody Tim3_0038 (antibody, V domains shown, Mouse monoclonal from hybridoma) VH: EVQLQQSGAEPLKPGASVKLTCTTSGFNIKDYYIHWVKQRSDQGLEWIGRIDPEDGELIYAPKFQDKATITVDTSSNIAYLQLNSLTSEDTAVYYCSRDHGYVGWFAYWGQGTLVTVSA VL: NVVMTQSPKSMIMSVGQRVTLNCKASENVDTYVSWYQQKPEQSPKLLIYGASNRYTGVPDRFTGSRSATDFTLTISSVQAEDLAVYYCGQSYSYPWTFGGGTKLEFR
Endpoint label: Specific Binding [MFI]
Unit info: MFI
Experimental result: 1400
//
Binder: anti-TIM3 antibody Tim3_0021 (antibody, V domains shown, Mouse monoclonal from hybridoma) VH: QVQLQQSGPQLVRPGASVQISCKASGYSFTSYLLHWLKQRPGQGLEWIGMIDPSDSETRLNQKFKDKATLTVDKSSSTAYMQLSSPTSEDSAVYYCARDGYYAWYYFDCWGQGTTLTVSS VL: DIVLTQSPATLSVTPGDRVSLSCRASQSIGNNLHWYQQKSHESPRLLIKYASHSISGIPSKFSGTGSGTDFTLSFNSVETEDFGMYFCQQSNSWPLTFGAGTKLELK
Endpoint label: Specific Binding [MFI]
Unit info: MFI
Experimental result: 1200
